Test: AUC in rat at 10 mg/kg, po
Assay type: ADME, organism-based
Design: dose 10 mg/kg, route oral
Conditions: plasma
ENDPOINT LABEL: AUC (ng·h/mL)
Use ng·h/mL as the unit, but write only the number.

The reported value for `Cc1nc(N)c2ncn([C@@H]3O[C@H](CN(C)C/C=C\CN)[C@@H](O)[C@H]3O)c2n1` in terms of AUC is 49

---

Assign IC50 to each entry below.

Assay Cytochrome P450 2C19 (Homo sapiens), sample `CN(C/C=C\CN)C[C@H]1O[C@@H](n2cnc3c(N)ncnc32)[C@H](F)[C@@H]1O` , IC50 read: > 5 µM

Test item `CN(C/C=C\CN)C[C@H]1O[C@@H](n2cnc3c(N)ncnc32)[C@H](O)[C@@H]1O` ; Cytochrome P450 2C19 (Homo sapiens); reported IC50 was > 5 µM
